- Test target: Pro-neuregulin-1, membrane-bound isoform (Homo sapiens) (UniProt Q02297)
- Sequence (Q02297 whole entry, looked up, canonical isoform): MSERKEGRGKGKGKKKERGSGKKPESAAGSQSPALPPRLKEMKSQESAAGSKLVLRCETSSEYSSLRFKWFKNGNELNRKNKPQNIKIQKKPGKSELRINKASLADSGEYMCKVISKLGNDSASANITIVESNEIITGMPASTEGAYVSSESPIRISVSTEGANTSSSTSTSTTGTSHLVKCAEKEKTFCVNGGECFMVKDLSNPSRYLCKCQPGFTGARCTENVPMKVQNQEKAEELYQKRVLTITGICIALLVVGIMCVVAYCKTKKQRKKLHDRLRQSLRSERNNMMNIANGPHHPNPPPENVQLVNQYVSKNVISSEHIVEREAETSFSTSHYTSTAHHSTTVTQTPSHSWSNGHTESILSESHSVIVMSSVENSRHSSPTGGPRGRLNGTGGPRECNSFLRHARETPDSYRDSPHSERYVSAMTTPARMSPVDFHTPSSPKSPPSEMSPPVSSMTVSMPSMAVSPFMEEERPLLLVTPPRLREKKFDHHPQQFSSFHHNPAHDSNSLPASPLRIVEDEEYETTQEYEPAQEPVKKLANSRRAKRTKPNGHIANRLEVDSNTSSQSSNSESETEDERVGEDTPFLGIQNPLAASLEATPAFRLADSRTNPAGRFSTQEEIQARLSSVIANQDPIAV
- Experiment notes: NRG1 binders on small-molecule microarrays, primary screen, psychiatric disease protein project, biochemical, small-molecule microarray, fluorescence 635/667 (AID 1075);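 also: score combines 667 nm spot fluorescence with signal to noise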
- Stated conditions: NRG1 binding, 635 nm fluorescence, higher = more signal
Endpoint name: composite z-score

INSERT INTO assay_data (molecule, recorded_value) VALUES
  ('COC(=O)[C@H](C)NC(=O)CCC1CC(OC(=O)NCCc2ccc(F)cc2)CC2(CCCC(COC(=O)NCC(c3ccccc3)c3ccccc3)O2)O1 (some centres undefined)', 0.846),
  ('COC(=O)CC=C[C@@H](C)[C@@H](C=NO[C@@H](C)c1cc(-c2c(C)cc(C)cc2C)no1)OC', -0.674),
  ('C[C@H](c1ccccc1)N1C(=O)[C@H]2[C@H]3[C@H](O)[C@H](O)CC(=O)[C@@H]3CC[C@H]2C1=O', -0.117),
  ('COc1ccc(-c2nc3c(c4c2C[C@H](C)OC4)CN(CCC(C)C)CC3)cc1', 0.114),
  ('CCN1C(=O)[C@H]2[C@H]3[C@H](O)[C@H](O)CC(=NOC(C)CN4CCCCc5nc(C)c(C)cc54)[C@@H]3CC[C@H]2C1=O (some centres undefined)', -0.531),
  ('CCOC(=O)[C@H](Cc1ccccc1)NC(=O)CCC1CC(OC(=O)NCc2ccc3c(c2)OCO3)CC2(CCCC(COC(=O)NCc3ccccc3)O2)O1 (some centres undefined)', 0.317),
  ('C[C@H]1CC[C@@H](C(=O)O)N[C@@H]1c1ccc(C#CCN(C)C)cc1', 0.115),
  ('COc1ccc(O[C@H]2C=C[C@@H](c3ccccc3)O[C@@H]2COC(=O)CCC(C)=NO[C@H](C)c2cn([C@@H]3COC[C@H]3O)nn2)cc1', 0.489),
  ('O=C1C[C@@H](O)[C@@H](O)[C@@H]2[C@@H]3C(=O)N(c4ccc(F)cc4F)C(=O)[C@@H]3CC[C@@H]12', 0.0489),
  ('O=C1C[C@@H](O)[C@@H](O)[C@@H]2[C@@H]3C(=O)N(Cc4ccc5c(c4)OCO5)C(=O)[C@@H]3CC[C@@H]12', -0.13),
  ('C=CC[C@]1(C(=O)NCc2ccccc2)N=C(c2ccc(OCCCO)cc2)O[C@H]1c1ccccc1', 1.51),
  ('CC(=O)OC[C@H]1O[C@H](CCON=C(C)CCC(=O)OC[C@H]2O[C@H](C#Cc3ccccc3)C=C[C@@H]2Oc2ccc(C)cc2)C=C[C@@H]1OC(C)=O', 0.0383),
  ('CC[C@@H](c1ccccc1)n1c(=O)n2n(c1=O)[C@H]1[C@H](O)[C@@H]3O[C@@H]3C(=NOCC(C)C)[C@H]1CC2', -0.0258),
  ('COCCOC(=O)N1C(=O)[C@@]2(c3cc(C#CCNC(N)=O)ccc31)[C@H](c1ccc(O)cc1)N1[C@H](c3ccccc3)[C@H](c3ccccc3)OC(=O)[C@H]1[C@@H]2C(=O)N1CCCCCCC1', 0.523);
